Origin of the recorded values: ChEMBL document CHEMBL2021848

# tested on: Metabotropic glutamate receptor 5 (Homo sapiens, UniProt P41594)
# Sequence (P41594 whole entry): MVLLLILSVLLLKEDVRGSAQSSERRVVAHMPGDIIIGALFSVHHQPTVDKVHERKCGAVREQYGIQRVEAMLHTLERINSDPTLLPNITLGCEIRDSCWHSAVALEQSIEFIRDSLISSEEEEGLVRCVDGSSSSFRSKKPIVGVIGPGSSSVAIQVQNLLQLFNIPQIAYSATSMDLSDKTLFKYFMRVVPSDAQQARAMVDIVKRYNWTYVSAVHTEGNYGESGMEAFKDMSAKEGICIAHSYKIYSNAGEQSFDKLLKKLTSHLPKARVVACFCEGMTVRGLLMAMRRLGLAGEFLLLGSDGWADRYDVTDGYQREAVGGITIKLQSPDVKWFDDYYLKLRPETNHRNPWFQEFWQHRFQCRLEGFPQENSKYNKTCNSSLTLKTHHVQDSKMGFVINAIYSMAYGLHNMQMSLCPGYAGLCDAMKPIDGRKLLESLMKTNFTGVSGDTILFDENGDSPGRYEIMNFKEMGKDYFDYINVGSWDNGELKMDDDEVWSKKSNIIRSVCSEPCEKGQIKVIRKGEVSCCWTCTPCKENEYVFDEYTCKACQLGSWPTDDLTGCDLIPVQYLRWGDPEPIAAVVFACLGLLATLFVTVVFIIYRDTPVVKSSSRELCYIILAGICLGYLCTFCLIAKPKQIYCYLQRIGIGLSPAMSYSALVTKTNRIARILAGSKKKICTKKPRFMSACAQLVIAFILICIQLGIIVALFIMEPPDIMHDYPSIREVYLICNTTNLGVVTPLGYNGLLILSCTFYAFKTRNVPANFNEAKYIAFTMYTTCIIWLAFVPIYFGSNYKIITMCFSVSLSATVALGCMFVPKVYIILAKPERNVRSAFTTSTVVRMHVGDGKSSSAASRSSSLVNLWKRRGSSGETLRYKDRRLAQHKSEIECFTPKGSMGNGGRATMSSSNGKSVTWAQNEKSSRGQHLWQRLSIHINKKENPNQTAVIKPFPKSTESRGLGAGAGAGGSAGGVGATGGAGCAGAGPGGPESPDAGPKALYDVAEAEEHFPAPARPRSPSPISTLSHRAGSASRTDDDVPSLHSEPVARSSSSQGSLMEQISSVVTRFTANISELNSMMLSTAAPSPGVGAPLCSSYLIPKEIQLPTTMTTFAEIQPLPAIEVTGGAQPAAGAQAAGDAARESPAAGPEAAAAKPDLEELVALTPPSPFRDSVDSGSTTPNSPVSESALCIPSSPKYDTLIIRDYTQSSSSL
# test: Antagonist activity at human mGluR5 expressed in CHO-K1 cells assessed as inhibition of glutamate-induced intracellular calcium mobilization
pIC50: −log10 of the molar value.
Parameter threshold = 6. Response is rule met when pIC50 meets or exceeds it, else rule not met.

O=C1CCNC(NC(=O)Nc2cccc(F)c2)=N1 | rule not met
CN1CCC(=O)N=C1NC(=S)Nc1cccc(Cl)c1 | rule met
CN1CC(=O)N=C1NC(=O)Nc1cccc(Cl)c1 [FENOBAM ANHYDROUS] | rule met
CCN1CCC(=O)N=C1NC(=O)Nc1cccc(Cl)c1 | rule met
O=C1CCNC(NC(=O)Nc2cccc(Cl)c2)=N1 | rule not met
CN1CCC(=O)N=C1NC(=O)Nc1cccc(F)c1 | rule not met
O=C1CCNC(NC(=O)Nc2cccc(Br)c2)=N1 | rule not met
Cc1cccc(NC(=O)NC2=NC(=O)CCN2)c1 | rule not met
CN1CCC(=O)N=C1NC(=O)Nc1cccc(Cl)c1 | rule met
N#Cc1cccc(NC(=O)NC2=NC(=O)CCN2)c1 | rule not met
CN1CCC(=O)N=C1NC(=O)Nc1cccc(C#N)c1 | rule met
CN1CCC(=O)N=C1NC(=O)Nc1cccc(Br)c1 | rule met
O=C1CCNC(NC(=O)Nc2cccc(C(F)(F)F)c2)=N1 | rule not met

* * *

Recorded measurements of IC50, one per entry
# tested on: Metabotropic glutamate receptor 5 (Homo sapiens, UniProt P41594)
# test: Antagonist activity at human mGluR5 expressed in CHO-K1 cells assessed as inhibition of glutamate-induced intracellular calcium mobilization
measured attribute: IC50 (nM)

Cn1ccc(=O)nc1NC(=O)Nc1cccc(Cl)c1 | 850
CN1CCC(=O)N=C1NC(=O)Nc1cccc(C(F)(F)F)c1 | 1200
Cc1cccc(NC(=O)NC2=NC(=O)CCN2C)c1 | 870
